System Tested: T1, human MSLN-FL-his protein (human, UniProt Q13421 296-580)
T1 construct: also called human MSLN full-length protein; hMSLN-FL-his; not shown: His tag
T1 sequence (Q13421 other isoform, or with tags, fused parts or gaps): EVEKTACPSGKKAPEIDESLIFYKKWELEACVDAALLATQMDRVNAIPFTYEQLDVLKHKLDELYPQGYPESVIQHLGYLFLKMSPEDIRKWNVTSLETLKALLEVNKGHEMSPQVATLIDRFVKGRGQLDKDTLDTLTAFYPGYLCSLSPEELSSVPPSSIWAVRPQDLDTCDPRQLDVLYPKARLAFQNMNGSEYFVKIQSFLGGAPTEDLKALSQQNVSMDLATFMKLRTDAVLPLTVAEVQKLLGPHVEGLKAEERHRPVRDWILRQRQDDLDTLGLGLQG
Experiment Summary: ELISA, coated MSLN full-length;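 note: binding of chimeric antibodies to plate-bound antigen, read by TMB colour after acid stop, antibody incubated 2 h at 37 °C, negative control antibody run alongside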
Measure Name: OD450 at 10 nM (OD450)
Give bare numbers, in OD450.

Look over these answered cases.
S009-F2.47.1 (antibody, human IgG1, kappa, V domains shown, Human-murine chimeric antibody, human IgG1/kappa constant regions) VH: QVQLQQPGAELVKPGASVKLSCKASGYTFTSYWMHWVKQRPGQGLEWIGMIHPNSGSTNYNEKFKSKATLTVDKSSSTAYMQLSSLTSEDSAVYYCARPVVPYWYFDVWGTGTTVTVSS VL: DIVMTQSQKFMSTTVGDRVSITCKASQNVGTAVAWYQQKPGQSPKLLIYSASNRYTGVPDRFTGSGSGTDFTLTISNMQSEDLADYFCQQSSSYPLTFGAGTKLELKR = 2.4
S009-F2.23.12 (antibody, human IgG1, kappa, V domains shown, Human-murine chimeric antibody, human IgG1/kappa constant regions) VH: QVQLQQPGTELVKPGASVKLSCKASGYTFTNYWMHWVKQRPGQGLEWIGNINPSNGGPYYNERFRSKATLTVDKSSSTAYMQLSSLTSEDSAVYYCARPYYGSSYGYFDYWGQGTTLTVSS VL: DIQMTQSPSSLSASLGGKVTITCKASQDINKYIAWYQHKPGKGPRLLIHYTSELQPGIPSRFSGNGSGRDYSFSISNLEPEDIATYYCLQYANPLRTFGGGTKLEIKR = 2.5
S009-F2.58.8 (antibody, human IgG1, kappa, V domains shown, Human-murine chimeric antibody, human IgG1/kappa constant regions) VH: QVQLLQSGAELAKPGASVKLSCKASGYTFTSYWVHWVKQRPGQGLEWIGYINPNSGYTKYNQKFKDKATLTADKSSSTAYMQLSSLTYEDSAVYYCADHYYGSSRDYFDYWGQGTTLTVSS VL: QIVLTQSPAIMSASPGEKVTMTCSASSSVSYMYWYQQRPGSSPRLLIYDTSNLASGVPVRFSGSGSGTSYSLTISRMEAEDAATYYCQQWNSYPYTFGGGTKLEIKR = 2.47
S009-F2.16.10 (antibody, human IgG1, kappa, V domains shown, Human-murine chimeric antibody, human IgG1/kappa constant regions) VH: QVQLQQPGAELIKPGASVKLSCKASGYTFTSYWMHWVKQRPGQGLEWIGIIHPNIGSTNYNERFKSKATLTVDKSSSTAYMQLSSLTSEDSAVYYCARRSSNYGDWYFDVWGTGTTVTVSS VL: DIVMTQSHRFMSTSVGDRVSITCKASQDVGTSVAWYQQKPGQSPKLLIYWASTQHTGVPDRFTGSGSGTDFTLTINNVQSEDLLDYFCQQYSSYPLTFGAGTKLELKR = 2.4
S009-F2.38.12 (antibody, human IgG1, kappa, V domains shown, Human-murine chimeric antibody, human IgG1/kappa constant regions) VH: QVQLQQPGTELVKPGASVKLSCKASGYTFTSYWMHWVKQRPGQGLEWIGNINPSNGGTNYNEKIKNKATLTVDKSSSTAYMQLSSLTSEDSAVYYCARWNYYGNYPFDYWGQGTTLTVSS VL: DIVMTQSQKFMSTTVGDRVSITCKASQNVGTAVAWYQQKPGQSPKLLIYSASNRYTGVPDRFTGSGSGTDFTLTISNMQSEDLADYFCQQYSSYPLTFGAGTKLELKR = 2.43

Here are 4 binders. What values of OD450 at 10 nM were reported for them?
1. S009-F2.21.4 (antibody, human IgG1, kappa, V domains shown, Human-murine chimeric antibody, human IgG1/kappa constant regions) VH: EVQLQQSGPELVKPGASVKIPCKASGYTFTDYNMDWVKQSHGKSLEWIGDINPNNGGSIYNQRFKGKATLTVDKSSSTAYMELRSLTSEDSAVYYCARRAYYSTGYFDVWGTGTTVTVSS VL: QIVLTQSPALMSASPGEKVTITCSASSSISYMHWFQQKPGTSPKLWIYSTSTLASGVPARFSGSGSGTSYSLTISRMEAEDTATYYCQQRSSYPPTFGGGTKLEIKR
2. S009-F2-56.12 (antibody, human IgG1, kappa, V domains shown, Human-murine chimeric antibody, human IgG1/kappa constant regions) VH: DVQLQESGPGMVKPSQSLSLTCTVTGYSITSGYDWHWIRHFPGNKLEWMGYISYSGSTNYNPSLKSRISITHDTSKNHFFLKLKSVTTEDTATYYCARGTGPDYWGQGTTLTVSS VL: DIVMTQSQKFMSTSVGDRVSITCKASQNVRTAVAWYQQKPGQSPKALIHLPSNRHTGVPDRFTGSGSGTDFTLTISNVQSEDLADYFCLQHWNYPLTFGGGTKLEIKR
3. S009-F2.13.3 (antibody, human IgG1, kappa, V domains shown, Human-murine chimeric antibody, human IgG1/kappa constant regions) VH: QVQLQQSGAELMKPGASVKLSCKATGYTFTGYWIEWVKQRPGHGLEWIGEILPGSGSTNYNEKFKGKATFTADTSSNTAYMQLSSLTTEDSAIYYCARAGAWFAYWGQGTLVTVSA VL: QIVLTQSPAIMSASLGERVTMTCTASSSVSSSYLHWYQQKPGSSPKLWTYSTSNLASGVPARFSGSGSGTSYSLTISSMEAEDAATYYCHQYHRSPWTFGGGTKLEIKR
4. S009-F2.39.3 (antibody, human IgG1, kappa, V domains shown, Human-murine chimeric antibody, human IgG1/kappa constant regions) VH: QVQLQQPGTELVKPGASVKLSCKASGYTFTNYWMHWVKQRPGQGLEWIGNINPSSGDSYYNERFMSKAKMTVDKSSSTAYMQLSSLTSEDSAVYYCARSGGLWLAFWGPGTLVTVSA VL: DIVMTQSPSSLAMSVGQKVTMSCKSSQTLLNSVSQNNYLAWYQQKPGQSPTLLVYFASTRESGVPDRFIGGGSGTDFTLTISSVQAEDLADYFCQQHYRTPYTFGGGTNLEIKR

Output:
1: 2.56; 2: 0.37; 3: 2.37; 4: 2.37

Data provenance: patent US20250250357A1
